target: Eukaryotic translation initiation factor 4E (Oryctolagus cuniculus, UniProt P29338); assay: Inhibition of eIF4E-mediated mRNA translation in rabbit reticulocyte lysate pre-incubated for 60 mins prior to mRNA addition by luciferase reporter gene assay
Sequence (P29338 whole entry): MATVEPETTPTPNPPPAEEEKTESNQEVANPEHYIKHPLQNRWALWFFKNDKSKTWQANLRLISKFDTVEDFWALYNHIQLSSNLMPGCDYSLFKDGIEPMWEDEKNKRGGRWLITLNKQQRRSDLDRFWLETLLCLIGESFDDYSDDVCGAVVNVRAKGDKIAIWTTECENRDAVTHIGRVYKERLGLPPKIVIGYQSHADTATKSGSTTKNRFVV
measure.name: pIC50
# reply with the number alone; pIC50 is -log10 of concentration in mol/L

*Q* Any idea what its pIC50 is? The compound is C[n+]1cn([C@@H]2O[C@H](COP(=O)([O-])OP(=O)([O-])NP(=O)([O-])OC[C@H]3O[C@@H](n4cnc5c(=O)[nH]c(N)nc54)[C@H](O)[C@@H]3O)[C@@H](O)[C@H]2O)c2nc(N)[nH]c(=O)c21.[Na+].[Na+]
*A* 5.22
